- Study Target: UniProt Q13627
- Experiment Summary: Inhibition of human N-terminal His6-tagged DYRK1A expressed in Escherichia coli BL21 (DE3) using KKISGRLSPIMTEQ as substrate incubated in presence of ATP
Measurement Kind: pIC50
Give bare numbers, as −log10 of the molar value.

{"columns": ["Structure Notation", "Study Target", "pIC50"],
 "data": [
  ["O=C(Cc1ccccc1)Nc1ccc(NC(=O)Nc2nc3ccc(O)cc3s2)cc1", "UniProt Q13627", 7.70]
]}

For every record below, what is its pIC50?
1. O=C(Nc1ccc(NS(=O)(=O)c2cccc(F)c2)cc1)Nc1nc2ccc(O)cc2s1
2. O=C(Nc1ccc(NC(=O)C2CC2)cc1)Nc1nc2ccc(O)cc2s1
3. O=C(Nc1ccc(NC(=O)C2CCNCC2)cc1)Nc1nc2ccc(O)cc2s1

1. 7.35
2. 6.80
3. 6.75

Give pIC50 only, for O=C(Nc1ccc(NC(=O)c2ccccc2)cc1)Nc1nc2ccc(O)cc2s1 , using UniProt Q13627 data. 6.81

###

- Study Target: UniProt Q9Y463
- Sequence (Q9Y463 whole entry, looked up): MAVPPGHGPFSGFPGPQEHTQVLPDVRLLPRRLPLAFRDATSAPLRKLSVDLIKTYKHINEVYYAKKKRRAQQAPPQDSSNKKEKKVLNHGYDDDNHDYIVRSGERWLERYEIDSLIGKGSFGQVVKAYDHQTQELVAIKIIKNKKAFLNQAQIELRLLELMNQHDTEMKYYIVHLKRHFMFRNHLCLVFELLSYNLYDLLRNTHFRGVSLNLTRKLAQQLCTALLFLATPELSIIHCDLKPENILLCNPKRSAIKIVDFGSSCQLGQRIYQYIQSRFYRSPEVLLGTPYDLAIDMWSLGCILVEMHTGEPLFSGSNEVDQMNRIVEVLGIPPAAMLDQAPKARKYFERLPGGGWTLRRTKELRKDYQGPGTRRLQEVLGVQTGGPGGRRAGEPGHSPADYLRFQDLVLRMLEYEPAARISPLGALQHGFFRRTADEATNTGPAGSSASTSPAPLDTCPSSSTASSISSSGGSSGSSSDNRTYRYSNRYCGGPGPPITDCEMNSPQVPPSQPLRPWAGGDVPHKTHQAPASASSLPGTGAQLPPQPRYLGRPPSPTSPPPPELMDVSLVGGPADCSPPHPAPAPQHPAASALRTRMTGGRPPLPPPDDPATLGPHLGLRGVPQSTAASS
- Experiment Summary: Inhibition of human recombinant DYRK1B at 1 uM using KKISGRLSPIMTEQ as substrate incubated in presence of ATP relative to control
Measurement Kind: inhibition (%)
One number for each entry, in %.

{"columns": ["Structure Notation", "Measurement Kind", "Measured Value"],
 "data": [
  ["N#Cc1cccc(C(=O)Nc2ccc(NC(=O)Nc3nc4ccc(O)cc4s3)cc2)c1", "inhibition", 36]
]}

Field: inhibition. Fill in for each record below.
1. O=C(Nc1ccc(NS(=O)(=O)c2cccc(F)c2)cc1)Nc1nc2ccc(O)cc2s1
2. O=C(Nc1ccc(NC(=O)c2cc(F)cc(F)c2)cc1)Nc1nc2ccc(O)cc2s1
3. Cc1cccc(C(=O)Nc2ccc(NC(=O)Nc3nc4ccc(O)cc4s3)cc2)c1
4. O=C(Nc1ccc(NC(=O)c2cccc(F)c2)cc1)Nc1nc2ccc(O)cc2s1

1. 15
2. 11
3. 30
4. 9

Hey, can you go through the list below and give me inhibition for every item?
1. O=C(Nc1ccc(NC(=O)C2CCCCC2)cc1)Nc1nc2ccc(O)cc2s1
2. O=C(Nc1ccc(NC(=O)c2ccccc2)cc1)Nc1nc2ccc(O)cc2s1

25
34

I have 2 compounds here; please give me inhibition for each one.
1. O=C(Nc1ccc(NC(=O)c2ccc(F)cc2)cc1)Nc1nc2ccc(O)cc2s1
2. CC(=O)Nc1ccc(NC(=O)Nc2nc3ccc(O)cc3s2)cc1

13
65

Required: inhibition, one value per compound below.
1. O=C(Nc1ccc(NS(=O)(=O)c2cc(F)cc(F)c2)cc1)Nc1nc2ccc(O)cc2s1
2. N#Cc1ccc(C(=O)Nc2ccc(NC(=O)Nc3nc4ccc(O)cc4s3)cc2)cc1

[9, 23]
